tested on: ChaGo-K-1; assay: relative viability (nuclei count vs DMSO), 5 days (fraction); higher = more cells survive; details: first compound 0.03162 µM
List of relative viability values.
No unit in the answer, please; the number alone is enough.

Guide cases for relative viability, answers given:
{"columns": ["Compound", "Tested target", "Test value"],
 "data": [
  ["NC(=O)Nc1cc(-c2cccc(F)c2)sc1C(=O)N[C@H]1CCCNC1 [AZD7762] + CC(=O)Nc1cccc(-n2c(=O)n(C3CC3)c(=O)c3c(Nc4ccc(I)cc4F)n(C)c(=O)c(C)c32)c1 [Trametinib] (partner 0.02 µM)", "ChaGo-K-1", 0.914],
  ["NC(=O)Nc1cc(-c2cccc(F)c2)sc1C(=O)N[C@H]1CCCNC1 [AZD7762] + Cc1nc(Nc2ncc(C(=O)Nc3c(C)cccc3Cl)s2)cc(N2CCN(CCO)CC2)n1 [Dasatinib] (partner 0.075 µM)", "ChaGo-K-1", 0.575],
  ["NC(=O)Nc1cc(-c2cccc(F)c2)sc1C(=O)N[C@H]1CCCNC1 [AZD7762] + Nc1nc2[nH]cc(CCc3ccc(C(=O)N[C@@H](CCC(=O)O)C(=O)O)cc3)c2c(=O)[nH]1 [Pemetrexed] (partner 0.2 µM)", "ChaGo-K-1", 0.267],
  ["NC(=O)Nc1cc(-c2cccc(F)c2)sc1C(=O)N[C@H]1CCCNC1 [AZD7762] + C[C@@H](Oc1cc(-c2cnn(C3CCNCC3)c2)cnc1N)c1c(Cl)ccc(F)c1Cl [Crizotinib] (partner 1 µM)", "ChaGo-K-1", 1.04]
]}

// below: relative viability requested for another compound
Lookup: # query: relative viability of entry NC(=O)Nc1cc(-c2cccc(F)c2)sc1C(=O)N[C@H]1CCCNC1 [AZD7762] + COc1cc2c(Oc3ccc(NC(=O)C4(C(=O)Nc5ccc(F)cc5)CC4)cc3F)ccnc2cc1OCCCN1CCOCC1 [Foretinib] (partner 0.25 µM)
Found: 0.937

====

system: NCI-H522; assay: relative viability (nuclei count vs DMSO), 5 days (fraction); higher = more cells survive; conditions: first compound 0.1265 µM
List of relative viability values.
No unit in the answer, please; the number alone is enough.

Guide cases for relative viability, answers given:
{"columns": ["Compound", "Tested target", "Test value"],
 "data": [
  ["O=C(O)c1ccc(-c2c[nH]c3ncc(-c4ccccc4)cc23)cc1C1CCCC1 + Cc1nc(Nc2ncc(C(=O)Nc3c(C)cccc3Cl)s2)cc(N2CCN(CCO)CC2)n1 [Dasatinib] (partner 0.075 µM)", "NCI-H522", 0.887],
  ["O=C(O)c1ccc(-c2c[nH]c3ncc(-c4ccccc4)cc23)cc1C1CCCC1 + Nc1ncn([C@H]2C[C@H](O)[C@@H](CO)O2)c(=O)n1 [Decitabine] (partner 2 µM)", "NCI-H522", 0.593],
  ["O=C(O)c1ccc(-c2c[nH]c3ncc(-c4ccccc4)cc23)cc1C1CCCC1 + Nc1nc2[nH]cc(CCc3ccc(C(=O)N[C@@H](CCC(=O)O)C(=O)O)cc3)c2c(=O)[nH]1 [Pemetrexed] (partner 0.2 µM)", "NCI-H522", 1.04]
]}

// below: relative viability requested for another compound
Lookup: # query: relative viability of entry O=C(O)c1ccc(-c2c[nH]c3ncc(-c4ccccc4)cc23)cc1C1CCCC1 + N=C(N)NC(=N)NCCc1ccccc1 [Phenformin] (partner 250 µM)
Found: 0.724

====

system: EPLC-272H; test: relative viability (nuclei count vs DMSO), 5 days (fraction); higher = more cells survive; settings: first compound 0.04 µM
List of relative viability values.
No unit in the answer, please; the number alone is enough.

Guide cases for relative viability, answers given:
{"columns": ["Compound", "relative viability"],
 "data": [
  ["O=C(O)c1ccc(-c2c[nH]c3ncc(-c4ccccc4)cc23)cc1C1CCCC1 + C[C@]1(O)C[C@@H](c2nc(-c3ccc4ccc(-c5ccccc5)nc4c3)c3c(N)nccn32)C1 [Linsitinib] (partner 1 µM)", 1.16],
  ["O=C(O)c1ccc(-c2c[nH]c3ncc(-c4ccccc4)cc23)cc1C1CCCC1 + C[C@@H](Oc1cc(-c2cnn(C3CCNCC3)c2)cnc1N)c1c(Cl)ccc(F)c1Cl [Crizotinib] (partner 1 µM)", 0.974]
]}

// below: relative viability requested for another compound
Lookup: Form: Entry = O=C(O)c1ccc(-c2c[nH]c3ncc(-c4ccccc4)cc23)cc1C1CCCC1 + CS(=O)(=O)CCNCc1ccc(-c2ccc3ncnc(Nc4ccc(OCc5cccc(F)c5)c(Cl)c4)c3c2)o1 [Lapatinib] (partner 2 µM) | System = EPLC-272H | relative viability = ____
Found: 1.16

====

List of relative viability values.
system: NCI-H2126; assay: relative viability (nuclei count vs DMSO), 5 days (fraction); higher = more cells survive; settings: first compound 0.08 µM
No unit in the answer, please; the number alone is enough.

{"columns": ["Molecule", "relative viability"],
 "data": [
  ["Oc1nc(-c2ccc(C(F)(F)F)cc2)nc2c1CSCC2 [XAV939] + CC1(C)CCC(c2ccc(Cl)cc2)=C(CN2CCN(c3ccc(C(=O)NS(=O)(=O)c4ccc(N[C@H](CCN5CCOCC5)CSc5ccccc5)c(S(=O)(=O)C(F)(F)F)c4)cc3)CC2)C1 [Navitoclax] (partner 0.5 µM)", 0.773]
]}

Lookup: # query: relative viability of entry Oc1nc(-c2ccc(C(F)(F)F)cc2)nc2c1CSCC2 [XAV939] + Cc1nc(Nc2ncc(C(=O)Nc3c(C)cccc3Cl)s2)cc(N2CCN(CCO)CC2)n1 [Dasatinib] (partner 0.075 µM)
Found: 0.544

Lookup: # query: relative viability of entry Oc1nc(-c2ccc(C(F)(F)F)cc2)nc2c1CSCC2 [XAV939] + Cc1cc(Nc2cc(N3CCN(C)CC3)nc(Sc3ccc(NC(=O)C4CC4)cc3)n2)n[nH]1 [Tozasertib] (partner 0.1 µM)
Found: 0.791

Lookup: # query: relative viability of entry Oc1nc(-c2ccc(C(F)(F)F)cc2)nc2c1CSCC2 [XAV939] + O=C(CCCCCCC(=O)Nc1ccccc1)NO [Vorinostat] (partner 1 µM)
Found: 0.835

Lookup: # query: relative viability of entry Oc1nc(-c2ccc(C(F)(F)F)cc2)nc2c1CSCC2 [XAV939] + COc1cc2c(Oc3ccc(NC(=O)C4(C(=O)Nc5ccc(F)cc5)CC4)cc3F)ccnc2cc1OCCCN1CCOCC1 [Foretinib] (partner 0.25 µM)
Found: 1.1

====

List of relative viability values.
system: NCI-H1755; experiment: relative viability (nuclei count vs DMSO), 5 days (fraction); higher = more cells survive; conditions: first compound 0.1265 µM
No unit in the answer, please; the number alone is enough.

Guide cases for relative viability, answers given:
{"columns": ["Molecule", "Tested target", "relative viability"],
 "data": [
  ["O=C(O)c1ccc(-c2c[nH]c3ncc(-c4ccccc4)cc23)cc1C1CCCC1 + CS(=O)(=O)CCNCc1ccc(-c2ccc3ncnc(Nc4ccc(OCc5cccc(F)c5)c(Cl)c4)c3c2)o1 [Lapatinib] (partner 2 µM)", "NCI-H1755", 1.11],
  ["O=C(O)c1ccc(-c2c[nH]c3ncc(-c4ccccc4)cc23)cc1C1CCCC1 + COc1cc2c(Oc3ccc(NC(=O)C4(C(=O)Nc5ccc(F)cc5)CC4)cc3F)ccnc2cc1OCCCN1CCOCC1 [Foretinib] (partner 0.25 µM)", "NCI-H1755", 1.02],
  ["O=C(O)c1ccc(-c2c[nH]c3ncc(-c4ccccc4)cc23)cc1C1CCCC1 + CC1(C)CCC(c2ccc(Cl)cc2)=C(CN2CCN(c3ccc(C(=O)NS(=O)(=O)c4ccc(N[C@H](CCN5CCOCC5)CSc5ccccc5)c(S(=O)(=O)C(F)(F)F)c4)cc3)CC2)C1 [Navitoclax] (partner 0.5 µM)", "NCI-H1755", 1.05],
  ["O=C(O)c1ccc(-c2c[nH]c3ncc(-c4ccccc4)cc23)cc1C1CCCC1 + C[C@]1(O)C[C@@H](c2nc(-c3ccc4ccc(-c5ccccc5)nc4c3)c3c(N)nccn32)C1 [Linsitinib] (partner 1 µM)", "NCI-H1755", 1.01],
  ["O=C(O)c1ccc(-c2c[nH]c3ncc(-c4ccccc4)cc23)cc1C1CCCC1 + CC(C)C[C@H](NC(=O)[C@H](Cc1ccccc1)NC(=O)c1cnccn1)B(O)O [Bortezomib] (partner 0.002 µM)", "NCI-H1755", 0.732]
]}

// below: relative viability requested for another molecule
Lookup: # query: relative viability of entry O=C(O)c1ccc(-c2c[nH]c3ncc(-c4ccccc4)cc23)cc1C1CCCC1 + N=C(N)NC(=N)NCCc1ccccc1 [Phenformin] (partner 250 µM)
Found: 0.615

====

tested on: NCI-H441; assay: relative viability (nuclei count vs DMSO), 5 days (fraction); higher = more cells survive; conditions: first compound 0.253 µM
Reported metric: relative viability
No unit in the answer, please; the number alone is enough.

Guide cases for relative viability, answers given:
{"columns": ["Compound", "Tested target", "relative viability"],
 "data": [
  ["Oc1nc(-c2ccc(C(F)(F)F)cc2)nc2c1CSCC2 [XAV939] + COc1cccc2cc(-c3nc([C@H]4CC[C@H](C(=O)O)CC4)n4ncnc(N)c34)[nH]c12 [OSI-027] (partner 0.5 µM)", "NCI-H441", 0.794],
  ["Oc1nc(-c2ccc(C(F)(F)F)cc2)nc2c1CSCC2 [XAV939] + CCNC(=O)c1noc(-c2cc(C(C)C)c(O)cc2O)c1-c1ccc(CN2CCOCC2)cc1 [Luminespib] (partner 0.01 µM)", "NCI-H441", 0.355]
]}

Lookup: # query: relative viability of entry Oc1nc(-c2ccc(C(F)(F)F)cc2)nc2c1CSCC2 [XAV939] + NC(=O)Nc1cc(-c2cccc(F)c2)sc1C(=O)N[C@H]1CCCNC1 [AZD7762] (partner 0.2 µM)
Found: 0.947
